# Tested on: CCRIS mutagenicity, Ames/micronucleus/aberration tests
# run.description: CCRIS mutagenicity studies
# condition.notes: Test System: AMES SALMONELLA TYPHIMURIUM; Strain/Indicator: TA100; Metabolic Activation: NONE; Method: STANDARD PLATE
Activity calls are given as the source filed them. The rule behind the calls is not given here.
quantity.kind: mutagenic call

CCCC(=O)Nc1snc2cc(Cl)ccc12 = inactive; negative
COC(=O)c1cc(-c2ccc(N)c(C(=O)OC)c2)ccc1N = inactive; negative
O=S(=O)(Oc1ccc(Cl)cc1Cl)c1cccc2cccnc12 = inactive; negative
O=c1[nH]c(=O)n([C@H]2C[C@H](O)[C@@H](CO)O2)cc1COO = active; positive
COc1cccc2c1C(=O)c1c(O)c3c(c(O)c1C2=O)C[C@@](O)(C(=O)CO)C[C@@H]3O = active; positive

For each of the compounds below, note its mutagenic call.
1. O=c1c2ccc(OCC3CO3)cc2sn1CC1CO1 (centres undefined)
2. C1O[C@@H]1[C@@H]1CO1

1: active; positive; 2: active; positive

Look up mutagenic call for the entries below, preserving their order.
1. O=C1c2c(ccc3ccccc23)-c2cccc3cccc1c23
2. O=S(O)S(=O)(=O)O

1. inactive; negative
2. inactive; negative

Dear colleague, could you send me mutagenic call for each of the items below? Thanks.
1. N#Cc1cccc(/C=C/c2ccc(N)cc2)c1
2. CC(Cl)c1ccccc1 (centres undefined)

1. inactive; negative
2. inactive; negative

Okay, here is my list. What is mutagenic call for each of these?
1. c1ccc2nc3c(cc2c1)-c1cccc2cccc-3c12
2. NNC(=O)CNc1ccc2ccccc2c1

["inactive; negative", "inactive; negative"]

Fill blank: measured mutagenic call of the compound `O=C(O)Cc1c[nH]c2ccccc12` is ____.
inactive; negative
